Assay: physchem
Details: FeSSIF pH 5 + 1% PVPVA, pH 5, aqueous with cosolvent or surfactant or cyclodextrin, thermodynamic from solid
Quantity Measured: solubility kinetic at 4 h
Just so you know, I need the unit written after the number.

# solubility kinetic at 4 h of FC(F)(F)Oc1ccc(Nc2ccc3cccc(Cl)c3n2)cc1 [ABX464 crystalline Form I] = 358 µg/mL

###

Assay: Two-steps Dissolution/Precipitation in vitro Human Fasted model (gastric then intestinal compartment)
Assay type: physicochemical
Details: 37 °C, pH 6.5, fassif, thermodynamic from solid, intestinal compartment at pH 6.5 of the fasted human in vitro model; read-out: Solubility (ABX464 soluble fraction) in the intestinal compartment
Quantity Measured: solubility

# solubility of FC(F)(F)Oc1ccc(Nc2ccc3cccc(Cl)c3n2)cc1 [ABX464 crystalline Form I] = ~80 µg/mL
